B1: TOR1AIP2 (parent)
chain: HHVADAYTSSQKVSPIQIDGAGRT

Variants of: B1
Assay: protein stability index of a GFP-peptide fusion (GPS, HEK-293T) (PSI 1-6); higher = more stable;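 also: lentivirally expressed fusions sorted by FACS into six bins by GFP to DsRed ratio, PSI derived from sequencing read proportions per bin multiplied by bin number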
Conditions: c terminus: a fixed tail appended
Threshold rule: protein stability index greater than or equal to 4 is satisfied; below that, not satisfied.

The following variants have reported results that may help.
INSERT INTO assay_data (biosequence, answer_label) VALUES
  ('HRVADAYTSSQKVSPIQIDGAGRT [H2R]', 'not satisfied'),
  ('HHVADAYTSSQKVSPIQIDGAGGT [R23G]', 'not satisfied');

Q: Dear colleague, could you confirm whether HYVADAYTSSQKVSPIQIDGAGRT [H2Y] has protein stability index at or above 4?
Result: not satisfied

Q: Dear colleague, could you confirm whether HHVADAYTSSQKVSPIQIDGFGRT [A21F] has protein stability index at or above 4?
Result: not satisfied

Q: Dear colleague, could you confirm whether HHVADAYTSSQKVSPIQIDGAKRT [G22K] has protein stability index at or above 4?
Result: not satisfied
